protocol_summary: Oral bioavailability in dog at 1 mg/kg
Format: ADME, organism-based, Canis lupus familiaris
assay_conditions: in vivo
assay_endpoint: bioavailability (%)
Report only the number, with the unit % understood.

I would be grateful if you could share the reported bioavailability for CC(=O)N[C@@H]1C[C@H](NC(C)(C)C)CC[C@@H]1N1CC[C@H](Nc2ncnc3cc(C(C)(C)C)nn23)C1=O . 61

---

protocol_summary: Oral bioavailability in cynomolgus monkey at 1 mg/kg
Format: ADME, organism-based, Macaca fascicularis
assay_conditions: in vivo
assay_endpoint: bioavailability (%)
Report only the number, with the unit % understood.

I would be grateful if you could share the reported bioavailability for CC(=O)N[C@@H]1C[C@H](NC(C)(C)C)CC[C@@H]1N1CC[C@H](Nc2ncnc3cc(C(C)(C)C)nn23)C1=O . 63
